Molecular target: P.1 Spike (SARS-CoV2)
# Lookup of reported Kd keyed by entry
Your answer is read as pM, so omit the unit and give the number.

Here is how some binders turned out for Kd.
>>> reported_result("Ab_17 scFv-Fc (scFv, V domains shown) VH: QVQLVQSGGGVVQPGRSLRLSCAASGFTFDDYAMHWVRQVPGKGLEWVSGIDWNSGVIGYADSVKGRFTISRDNVKNSLYLQMNSLRTEDSALYYCAKDIGPGGSGSYYAFDIWGQGTTVTVSS VL: QSALTQPASVSGSPGQSITISCTGTSSDVGGSKYVSWYQQHPGKAPKVMIYDVTKRPSGVPDRFSGSKSGNTASLTISGLQAEDEADYYCAAWDDSLNGVVFGGGTKLTVL")
8
>>> reported_result("Ab_27 scFv-Fc (scFv, V domains shown) VH: QVQLVQSGTEVKKPGASVKVSCKASGYSFTGSHLHWVRQAPGQGLEWMGWINPDSGVINYAQKFQGRVTLTRDTSISTAYMELSGLRSDDTAVYYCARDKAIGYVWALDYWGQGTLVTVSS VL: QSALTQPPSVSGSPGQSVTISCTGTSSDVGTYNRVSWYQQPPGKAPKLMIYEVSNRPSGVSNRFSGSKSGNTASLTISGLQAEDEADYYCSSYTRTFTYVFGTGTKVTVL")
8.9
>>> reported_result("Ab_13 scFv-Fc (scFv, V domains shown) VH: QVTLKESGPKLVKPTQTLTLTCTFSGFSLSTSGVGVGWIRQPPGKALEWLALIYWDDDKRYSPSLKSRLTIAKDTSKYQVVLTMTNMDPVDTATYYCARISGSGYFYPFDIWGQGTMVTVSA VL: NFMLTQPHSVSESPGKTVTISCTRSSGSIASNYVQWYQQRPGSAPTTVIYEDNQRPSGVPDRFSGSIDSSSNSASLTISGLKTEDEADYYCQSYDSSNLWVFGGGTKLTVL")
4.88
>>> reported_result("Ab_25 scFv-Fc (scFv, V domains shown) VH: QVQLVQSGGGLVQPGGSLRLSCAASGFTFSSYWMSWVRQAPGKGLEWVANIKQDGSEKYYVDSVKGRFTISRDNAKNSLYLQMNSLRAEDTAVYYCARGFYYYGAFDIWGQGTTVTVSS VL: NFMLTQPHSVSESPGKTVTISCTGSSGSIASNYVQWYQQRPGSAPTTVIYEDNQRPSGVPDRFSGSIGSSSNSASLTISGLKTEDEADYYCQSYDSSNHWVFGGGTKLTVL")
8.72
>>> reported_result("Ab_26 scFv-Fc (scFv, V domains shown) VH: QVQLVQSGGGLVQPGRSLRLSCAASGFTFDDYAMHWVRQVPGKGLEWVSGIDWNSGVIGYADSVKGRFTISRDNAKNSLYLQMNSLRAEDTALYYCAKDAYSYGFLGAFDIWGQGTMVTVSS VL: LPVLTQPPSVSVAPGQTASITCGGDNIRTKGVHWYQQKPGQAPLLVIYYASDRPSGIPERFSGSSSGNTATLTISRVEAGDEADYYCQVWDSSSDLVVFGGGTTLTVL")
10.3

q: Sample Ab_19 scFv-Fc (scFv, V domains shown) VH: EVQLVESGAEVKKPGESLKISCKGSGYSFTSYWIGWVRQMPGKGLEWMGIIYPGDSDTRYSPSFQGQVTISADKSISTAYLQWSSLKASDTAMYYCARRGDLDAFDIWGQGTMVTVSS VL: QPGLTQPPAASGTPGQRVTVSCSGASANIGSNAVSWFKQFPETAPRLLISGNTHRPSGVPDRVSGSKSGTSASLTISGLQSDDEADYYCAAWDDSLNGYVFGSGTKVTVL — what was its Kd?
a: 8.94

q: # repeat for Ab_21 scFv-Fc (scFv, V domains shown) VH: QVQLVQSGGGLVQPGGSLRLSCATSGFTFDDYAMHWVRQAPGKGLEWVSGISWNSGSIGYVDSVKGRFTISRDNRNNKVYLQMNNLRAEDTAVYYCARDWWGSIDHWGLGTLVTVSS VL: QSALTQPRSVSGSPGQSVTISCTGTSSDVGGYDYVSWYQQHPGKAPKLIIYDVSKRPSGVPDRFSGSKSGNTASLTVSGLQAEDEADYYCSSYTSSSPVVFGGGTKLTVL
a: 9.52
